Target or system: HLA-A*26:01
Assay procedure: IEDB peptide-MHC binding, purified MHC/competitive/fluorescence; filed as Kd, often an IC50 or EC50 that approximates it; bounds were set here for any values at or beyond the usual limits of such assays
Condition details: source organism: Orthohantavirus sinnombreense
Value kind: Kd

### Prompt I am curious: what Kd value has been reported for LVTARQKLK ?
### Response ≥ 20 µM

---

Target or system: HLA-A*69:01
Assay procedure: IEDB peptide-MHC binding, purified MHC/competitive/fluorescence; filed as Kd, often an IC50 or EC50 that approximates it; bounds were set here for any values at or beyond the usual limits of such assays
Condition details: source organism: Seoul virus 80-39
pKd: −log10 of the molar value.
Value kind: pKd

### Prompt I am curious: what pKd value has been reported for LVRDITESL ?
### Response ≤ 4.70

---

Target or system: HLA-A*26:01
Assay procedure: IEDB peptide-MHC binding, purified MHC/competitive/radioactivity; filed as Kd, often an IC50 or EC50 that approximates it; bounds were set here for any values at or beyond the usual limits of such assays
Condition details: source organism: Dengue virus 2 Jamaica/1409/1983
Value kind: pKd
Lab note: report pKd as minus log10 of the concentration in molar units, number only.

Worked cases, answers included:
{"Macromolecule sequence": "ETRTETWMSS", "Target or system": "HLA-A*26:01", "pKd": 6.16}
{"Macromolecule sequence": "HTAEAGGRAY", "Target or system": "HLA-A*26:01", "pKd": 7.61}
{"Macromolecule sequence": "VLVGVVTLY", "Target or system": "HLA-A*26:01", "pKd": 4.87}

# evaluate next
### Prompt I am curious: what pKd value has been reported for ETWILRHPGF ?
### Response 5.86

---

Target or system: HLA-B*15:02
Assay procedure: IEDB peptide-MHC binding, purified MHC/competitive/fluorescence; filed as Kd, often an IC50 or EC50 that approximates it; bounds were set here for any values at or beyond the usual limits of such assays
Condition details: source organism: Vibrio vulnificus YJ016
Value kind: Kd (µM)
Please reply with the bare figure in µM and do not write the unit itself.

### Prompt I am curious: what Kd value has been reported for LLRMFDHPF ?
### Response 0.0209

---

Target or system: HLA-A*23:01
Assay procedure: IEDB peptide-MHC binding, purified MHC/competitive/radioactivity; filed as Kd, often an IC50 or EC50 that approximates it; bounds were set here for any values at or beyond the usual limits of such assays
Condition details: source organism: Lymphocytic choriomeningitis virus (strain Armstrong)
Value kind: pKd
Lab note: report pKd as minus log10 of the concentration in molar units, number only.

### Prompt pKd of CWLVTNGSYL on HLA-A*23:01?
### Response 6.86

---

Target or system: HLA-A*01:01
Assay procedure: IEDB peptide-MHC binding, purified MHC/direct/fluorescence; filed as Kd, often an IC50 or EC50 that approximates it; bounds were set here for any values at or beyond the usual limits of such assays
Condition details: source organism: H9N2 subtype Influenza A virus (A/swine/Korea/S83/2004(H9N2))
Value kind: Kd

### Prompt I am curious: what Kd value has been reported for FQKDAKVLF ?
### Response ≥ 20 µM

---

Target or system: HLA-B*18:01
Assay procedure: IEDB peptide-MHC binding, purified MHC/competitive/fluorescence; filed as Kd, often an IC50 or EC50 that approximates it; bounds were set here for any values at or beyond the usual limits of such assays
Condition details: source organism: Seoul virus 80-39
pKd: −log10 of the molar value.
Value kind: pKd

### Prompt I am curious: what pKd value has been reported for LVRDITESL ?
### Response ≤ 4.70
